System: SW480
Assay: drug sensitivity score (DSS, integrated dose-response area); higher = more sensitive (stronger viability reduction); extreme values may be limits of the assay
Conditions: shRNA: SND1 shRNA1 (SND1 silenced)
measured-parameter: drug sensitivity score (DSS)
State just the number; it will be interpreted in DSS.

Here is how some compounds turned out for drug sensitivity score.
* CN(C)C[C@@H]1CCn2cc(c3ccccc32)C2=C(C(=O)NC2=O)c2cn(c3ccccc23)CCO1 [Ruboxistaurin] | 8.1
* O=C(O)CC1CC(c2ccccc2)=NO1 (centres undefined) [VGX-1027] | 0.2

Here O=C(CCCCCCC(=O)Nc1ccc([C@H]2O[C@@H](CSc3nc(-c4ccccc4)c(-c4ccccc4)o3)C[C@@H](c3ccc(CO)cc3)O2)cc1)NO [Tubacin] was tested on SW480, and its drug sensitivity score came to 4.1

Here C=C1C[C@@H]2[C@H](CC[C@]3(C)C(=O)CC[C@@H]23)[C@@]2(C)C=CC(=O)C=C12 [Exemestane] was tested on SW480, and its drug sensitivity score came to 3.1

Sourced from the supplement of paper PMC9265050
